FYI, the data here is from the supplement of paper PMC7877785.

Assay: self-splicing fitness, log relative to wild type (ln ratio); higher = more splicing; Tetrahymena group I intron in knt gene, E. coli kanamycin selection, DiMSum; sequences stand for … in CUCUCU…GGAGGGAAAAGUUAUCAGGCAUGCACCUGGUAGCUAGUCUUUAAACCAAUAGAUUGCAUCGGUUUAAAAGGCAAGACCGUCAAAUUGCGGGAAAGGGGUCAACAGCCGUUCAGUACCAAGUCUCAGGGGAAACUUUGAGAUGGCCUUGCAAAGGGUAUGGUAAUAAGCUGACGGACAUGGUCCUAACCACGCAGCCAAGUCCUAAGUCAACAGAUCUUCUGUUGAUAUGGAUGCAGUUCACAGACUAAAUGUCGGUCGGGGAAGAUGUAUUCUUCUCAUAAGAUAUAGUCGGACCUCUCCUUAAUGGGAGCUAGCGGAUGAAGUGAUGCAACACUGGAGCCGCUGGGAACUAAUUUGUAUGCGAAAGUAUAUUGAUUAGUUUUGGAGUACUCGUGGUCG;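 note: selection with 25 µg/mL kanamycin versus none on LB agar overnight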
Settings: 30 °C
Assignment: determine reported self-splicing fitness (ln) for the given sequences.
One number for each entry.

# batch size: 5; output self-splicing fitness (ln) per entry
1. GCAGAGCAAUAUUACGUGGA
2. ACUUAGCAAUAUUACGGUUA
3. UACAAGCAAUAUUACGUGUG
4. AUCCAGCAAUAUUACGACGA
5. CGCAAGCAAUAUUACGGCUG

### Response
1: -2.94; 2: -1.27; 3: -2.96; 4: -0.497; 5: -1.33

# batch size: 7; output self-splicing fitness (ln) per entry
1. GAUCAGCAAUAUUACGAGAU
2. AUGUAGCAAUAUUACGUUAU
3. AUAGAGCAAUAUUACGUGCU
4. AUCUAGCAAUAUUACGUACC
5. GUUCAGCAAUAUUACGUAGA
6. CAAAAGCAAUAUUACGAUGU
7. CCGCAGCAAUAUUACGGCUG

### Response
1: -3; 2: -2.41; 3: -1.24; 4: -1.3; 5: -0.546; 6: -2.32; 7: -3.8
